Test system: COLO 205 colorectal tumor cells
Assay Info: Tumor cell viability inhibition assay (CellTiter-Glo 2.0, 72 hours)
Assay type: cell-based
Condition Info: Homo sapiens, COLO 205, 72 h, COLO 205 cell viability
pIC50: −log10 of the molar value.
Please provide measured pIC50 for the entries that follow.

Field pIC50 (entry Cc1cc(-c2cc(Cl)ccc2OCCn2c(C)nc3c(c2=O)C[C@H](N2CCC(c4ccc(F)cc4F)CC2)CC3)c2scc(C(=O)O)c2n1 (single isomer, unassigned) ) reads > 5.30

Note to self: pIC50 recorded for Cc1cc(-c2cc(Cl)ccc2OCCn2c(C)nc3c(c2=O)CC(N2CCCCC2)CC3)c2ccc(C(=O)NS(C)(=O)=O)n2n1 (centres unmarked) was > 5.30

Entry under test: Cc1nc2c(c(=O)n1CC#Cc1ccc(Cl)cc1-c1ccnc3c(C(=O)O)csc13)CC(N(C)C1CC(F)(F)C1)CC2 (centres unmarked) . Its pIC50 was > 5.30

GET /value?item= Cc1cc(-c2cc(Cl)ccc2OCCn2c(C)nc3c(c2=O)CC(C)(N2CCC(C(F)(F)F)CC2)CC3)c2scc(C(=O)O)c2n1 (single isomer, unassigned) &field=pIC50 returns > 5.30

Note to self: pIC50 recorded for Cc1cc(-c2cc(Cl)ccc2OCCn2c(C)nc3c(c2=O)C[C@@H](N2CCC[C@@H](C(F)F)C2)CC32CC2)c2scc(C(=O)O)c2n1 (single isomer, unassigned) was > 5.30

For this molecule ( Cc1cc(-c2cc(Cl)ccc2OCCn2c(C)nc3c(c2=O)C[C@H](N2CCC(Oc4ccc(F)cc4F)CC2)CC32CC2)c2scc(C(=O)O)c2n1 (single isomer, unassigned) ), measured pIC50 is > 5.30

Form field pIC50, entry Cc1cc(-c2cc(Cl)ccc2OCCn2c(C)nc3c(c2=O)CC(N(C)C)CC3)c2ccc(C(=O)NS(C)(=O)=O)n2n1 (centres unmarked) : > 5.30

Lab note: measured pIC50 of Cc1cc(-c2cc(Cl)ccc2OCCn2c(C)nc3c(c2=O)CC(N(C)CCOC(F)(F)F)CC3)c2scc(C(=O)NS(C)(=O)=O)c2n1 (centres unmarked) was > 5.30

Measured pIC50 of Cc1cc(-c2cc(Cl)ccc2OCCn2c(C)nc3c(c2=O)C[C@@H](N2CCCC[C@H]2C(F)(F)F)CC32CC2)c2scc(C(=O)O)c2n1 (single isomer, unassigned) : 4.70 to 5.30

Kindly note the recorded pIC50 for Cc1cc(-c2cc(Cl)ccc2OCCn2c(C)nc3c(c2=O)C[C@@H](N2CCCC(F)(F)CC2)CC3)c2scc(C(=O)O)c2n1 (single isomer, unassigned) , which is > 5.30

pIC50 recorded for this molecule, Cc1cc(-c2cc(Cl)ccc2OCCn2c(C)nc3c(c2=O)CC(N2CCC4(CC2)CNCCO4)CC3)c2scc(C(=O)O)c2n1 (single isomer, unassigned) , is < 4.70
